src = paper PMC7583830

Assay name: Biodistribution in BALB/c mice
Format: in vivo
Particulars: female, BALB/c, mouse, lung, iv, 30 MBq, total radioactivity; 1 h p.i.; read-out: uptake in lung
Description: Metabolic biodistribution studies were performed in accordance with the ethical standards of the institution and approved by the Austrian Ministry of Science (BMWFW-66.011/0072-V/3b/2019). […] Urine was measured with the low-sensitivity loop of the radiodetector. The remaining samples were analyzed with the high-sensitivity loop due to the lower radioactivity present in blood, liver and kidney homogenate. […]
Where a SMILES comes first, the peptide text is derived from it. [ ]: non-standard residue; d: D form. The star is where a group is joined. DOTA = O=C(O)CN1CCN(CC(=O)O)CCN(CC(=O)*)CCN(CC(=O)O)CC1; 1Nal = N[C@@H](Cc1cccc2ccccc12)C(=O)O; NMeNle = CCCC[C@H](NC)C(=O)O
Property label: tissue uptake at 1 h (%ID/g)
The answer is to be given in %ID/g; state only the numeric part.

Lookup: GET /values?readout=tissue uptake at 1 h&item= CCCC[C@@H](C(=O)N[C@@H](CC(=O)O)C(=O)N[C@@H](Cc1cccc2ccccc12)C(N)=O)N(C)C(=O)[C@H](Cc1c[nH]c2ccccc12)NC(=O)CNC(=O)[C@H](Cc1ccc(O)cc1)NC(=O)[C@@H]1CCCN1C(=O)[C@@H](CCC(=O)O)NC(=O)CN1CCN(CC(=O)O)CCN(CC(=O)O)CCN(CC(=O)O)CC1 [[^177Lu]Lu-1, metal not drawn] ({DOTA}-[dE]PYGW[NMeNle]D[1Nal]-NH2)
Found: 1.95

---

Assay name: Biodistribution in BALB/c mice
Assay type: in vivo
Particulars: female, BALB/c, mouse, pancreas, iv, 30 MBq, total radioactivity; 30 min p.i.; read-out: uptake in pancreas
Where a SMILES comes first, the peptide text is derived from it. [ ]: non-standard residue; d: D form. The star is where a group is joined. DOTA = O=C(O)CN1CCN(CC(=O)O)CCN(CC(=O)*)CCN(CC(=O)O)CC1; 1Nal = N[C@@H](Cc1cccc2ccccc12)C(=O)O; NMeNle = CCCC[C@H](NC)C(=O)O
Property label: tissue uptake at 0.5 h
I'd appreciate it if you included the unit after the number.

Lookup: Would you mind telling me what tissue uptake at 0.5 h value was observed for CCCC[C@@H](C(=O)N[C@@H](CC(=O)O)C(=O)N[C@@H](Cc1cccc2ccccc12)C(N)=O)N(C)C(=O)[C@H](Cc1c[nH]c2ccccc12)NC(=O)CNC(=O)[C@H](Cc1ccc(O)cc1)NC(=O)[C@@H]1CCCN1C(=O)[C@@H](CCC(=O)O)NC(=O)CN1CCN(CC(=O)O)CCN(CC(=O)O)CCN(CC(=O)O)CC1 [[^177Lu]Lu-1, metal not drawn] ({DOTA}-[dE]PYGW[NMeNle]D[1Nal]-NH2) ?
Found: 1.76 %ID/g

---

Assay name: Biodistribution in BALB/c mice
Type: in vivo
Particulars: female, BALB/c, mouse, pancreas, iv, 30 MBq, total radioactivity; 10 min p.i.; read-out: uptake in pancreas
Description: Metabolic biodistribution studies were performed in accordance with the ethical standards of the institution and approved by the Austrian Ministry of Science (BMWFW-66.011/0072-V/3b/2019). […] Urine was measured with the low-sensitivity loop of the radiodetector. The remaining samples were analyzed with the high-sensitivity loop due to the lower radioactivity present in blood, liver and kidney homogenate. […]
Where a SMILES comes first, the peptide text is derived from it. [ ]: non-standard residue; d: D form. The star is where a group is joined. DOTA = O=C(O)CN1CCN(CC(=O)O)CCN(CC(=O)*)CCN(CC(=O)O)CC1; 1Nal = N[C@@H](Cc1cccc2ccccc12)C(=O)O; NMeNle = CCCC[C@H](NC)C(=O)O
Property label: tissue uptake at 10 min (%ID/g)
Provide only the numeric value, understood in %ID/g.

Lookup: Could you tell me which tissue uptake at 10 min is on file for CCCC[C@@H](C(=O)N[C@@H](CC(=O)O)C(=O)N[C@@H](Cc1cccc2ccccc12)C(N)=O)N(C)C(=O)[C@H](Cc1c[nH]c2ccccc12)NC(=O)CNC(=O)[C@H](Cc1ccc(O)cc1)NC(=O)[C@@H]1CCCN1C(=O)[C@@H](CCC(=O)O)NC(=O)CN1CCN(CC(=O)O)CCN(CC(=O)O)CCN(CC(=O)O)CC1 [[^177Lu]Lu-1, metal not drawn] ({DOTA}-[dE]PYGW[NMeNle]D[1Nal]-NH2) ?
Found: 3.39
